Measured inhibition at 100 µg/mL of individual entries
- measurement.notes: Antiplatelet activity in human whole blood assessed as inhibition of arachidonic acid-induced platelet aggregation at 100 ug/mL relative to control
- Assay type: functional
outcome.measure: inhibition at 100 µg/mL (%)

• O=Cc1ccc(O)cc1 [4-HYDROXYBENZALDEHYDE] = 5.4
• COc1cc(/C=C/c2ccc(O)cc2)oc(=O)c1 = 100
• COc1cc(/C=C/c2ccccc2)oc(=O)c1 = 100
• O=C(/C=C/c1ccc(O)cc1)CC(=O)/C=C/c1ccc(O)cc1 = 46.8
• COc1ccc2c(c1)c(CC(=O)O)c(C)n2C(=O)c1ccc(Cl)cc1 = 100
• COc1cc(O)cc(O)c1C(=O)/C=C/c1ccc(O)cc1 = 100
• COc1cc(O)cc2c1C(=O)CC(c1ccc(O)cc1)O2 (centres undefined) = 26.2
• COc1cc(O)cc(O)c1C(=O)/C=C/c1ccccc1 = 100
• O=C(/C=C(O)/C=C/c1ccc(O)cc1)CCc1ccc(O)cc1 = 100

###

- measurement.notes: Antiplatelet activity in human whole blood assessed as inhibition of collagen-induced platelet aggregation at 100 ug/mL relative to control
- Format: functional
# inhibition at 100 µg/mL >= 70% gives true, anything below gives false

* COc1cc(O)cc2c1C(=O)CC(c1ccc(O)cc1)O2 (centres undefined) | false
* O=C(/C=C/c1ccc(O)cc1)CC(=O)/C=C/c1ccc(O)cc1 | true
* O=Cc1ccc(O)cc1 [4-HYDROXYBENZALDEHYDE] | false
* COc1cc(/C=C/c2ccc(O)cc2)oc(=O)c1 | true
* COc1cc(O)cc(O)c1C(=O)/C=C/c1ccccc1 | false
* O=C(/C=C(O)/C=C/c1ccc(O)cc1)CCc1ccc(O)cc1 | true
* COc1cc(/C=C/c2ccccc2)oc(=O)c1 | false
* COc1cc(O)cc(O)c1C(=O)/C=C/c1ccc(O)cc1 | false

Values were extracted from ChEMBL document CHEMBL1159199.
